assay: total protein half-life in vivo (active degradation + dilution); higher = more stable protein; conditions: E. coli NCM3722 delta-lon; growth: N-lim chemostat; doubling time 6 h
Threshold check on total protein half-life in vivo: at or above 4 h gives true (1), strictly below gives false (0).

MPSTPEEKKKVLTRVRRIRGQIDALERSLEGDAECRAILQQIAAVRGAANGLMAEVLESHIRETFDRNDCYSREVSQSVDDTIELVRAYLK [P0AAP3]    true (1)
MRIGHGFDVHAFGGEGPIIIGGVRIPYEKGLLAHSDGDVALHALTDALLGAAALGDIGKLFPDTDPAFKGADSRELLREAWRRIQAKGYTLGNVDVTIIAQAPKMLPHIPQMRVFIAEDLGCHMDDVNVKATTTEKLGFTGRGEGIACEAVALLIKATK    true (1)
MVTSCTGHVLDNQRATTRGVFSSGSHLVTLHFQPHPFFSCVTDAVNGARSRFSAFYPKANYGLQGSQPSDVRAHNRAANGACDEYKQLKVLSMGRQKAVIKARREAKRVLRRDSRSHKQREEESVTSLVQMGGVEAIGMARDSRDTSPILARNEAQLHYLKAIESKQLIFATGEAGCGKTWISAAKAAEALIHKDVDRIIVTRPVLQADEDLGFLPGDIAEKFAPYFRPVYDVLVRRLGASFMQYCLRPEIGKVEIAPFAYMRGRTFENAVVILDEAQNVTAAQMKMFLTRLGENVTVIVNGDITQCDLPRGVCSGLSDALERFEEDEMVGIVRFGKEDCVRSALCQRTLHAYS [P0A9K1]    false (0)
MKTSVRIGAFEIDDGELHGESPGDRTLTIPCKSDPDLCMQLDAWDAETSIPALLNGEHSVLYRTRYDQQSDAWIMRLA    false (0)
MSTLGHQYDNSLVSNAFGFLRLPMNFQPYDSDADWVITGVPFDMATSGRAGGRHGPAAIRQVSTNLAWEHNRFPWNFDMRERLNVVDCGDLVYAFGDAREMSEKLQAHAEKLLAAGKRMLSFGGDHFVTLPLLRAHAKHFGKMALVHFDAHTDTYANGCEFDHGTMFYTAPKEGLIDPNHSVQIGIRTEFDKDNGFTVLDACQVNDRSVDDVIAQVKQIVGDMPVYLTFDIDCLDPAFAPGTGTPVIGGLTSDRAIKLVRGLKDLNIVGMDVVEVAPAYDQSEITALAAATLALEMLYIQAAKKGE    true (1)
MSCEELEIVWNNIKAEARTLADCEPMLASFYHATLLKHENLGSALSYMLANKLSSPIMPAIAIREVVEEAYAADPEMIASAACDIQAVRTRDPAVDKYSTPLLYLKGFHALQAYRIGHWLWNQGRRALAIFLQNQVSVTFQVDIHPAAKIGRGIMLDHATGIVVGETAVIENDVSILQSVTLGGTGKSGGDRHPKIREGVMIGAGAKILGNIEVGRGAKIGAGSVVLQPVPPHTTAAGVPARIVGKPDSDKPSMDMDQHFNGINHTFEYGDGI [P0A9D4]    true (1)

----------
Readings of total protein half-life in vivo for the listed sequences
test: total protein half-life in vivo (active degradation + dilution); higher = more stable protein; settings: wild type E. coli NCM3722; growth: C-lim chemostat; doubling time 12 h
ASSAY_READOUT: total protein half-life in vivo (h)

MSQPLLSVNGLMMRFGGLLAVNNVNLELYPQEIVSLIGPNGAGKTTVFNCLTGFYKPTGGTILLRDQHLEGLPGQQIARMGVVRTFQHVRLFREMTVIENLLVAQHQQLKTGLFSGLLKTPSFRRAQSEALDRAATWLERIGLLEHANRQASNLAYGDQRRLEIARCMVTQPEILMLDEPAAGLNPKETKELDELIAELRNHHNTTILLIEHDMKLVMGISDRIYVVNQGTPLANGTPEQIRNNPDVIRAYLGEA [P0A9S7]    12
MIAELFTNNALNLVIIFGSCAALILMSFWFRRGNRKRKGFLFHAVQFLIYTIIISAVGSIINYVIENYKLKFITPGVIDFICTSLIAVILTIKLFLLINQFEKQQIKKGRDITSARIMSRIIKITIIVVLVLLYGEHFGMSLSGLLTFGGIGGLAVGMAGKDILSNFFSGIMLYFDRPFSIGDWIRSPDRNIEGTVAEIGWRITKITTFDNRPLYVPNSLFSSISVENPGRMTNRRITTTIGLRYEDAAKVGVIVEAVREMLKNHPAIDQRQTLLVYFNQFADSSLNIMVYCFTKTTVWAEWLAAQQDVYLKIIDIVQSHGADFAFPSQTLYMDNITPPEQGR [P0AEB5]    11.9
MNNHFKCIGIVGHPRHPTALTTHEMLYRWLCTKGYEVIVEQQIAHELQLKNVKTGTLAEIGQLADLAVVVGGDGNMLGAARTLARYDIKVIGINRGNLGFLTDLDPDNAQQQLADVLEGHYISEKRFLLEAQVCQQDCQKRISTAINEVVLHPGKVAHMIEFEVYIDEIFAFSQRSDGLIISTPTGSTAYSLSAGGPILTPSLDAITLVPMFPHTLSARPLVINSSSTIRLRFSHRRNDLEISCDSQIALPIQEGEDVLIRRCDYHLNLIHPKDYSYFNTLSTKLGWSKKLF [P0A7B3]    12.1
MQKEQLSALMDGETLDSELLNELAHNPEMQKTWESYHLIRDSMRGDTPEVLHFDISSRVMAAIEEEPVRQPATLIPEAQPAPHQWQKMPFWQKVRPWAAQLTQMGVAACVSLAVIVGVQHYNGQSETSQQPETPVFNTLPMMGKASPVSLGVPSEATANNGQQQQVQEQRRRINAMLQDYELQRRLHSEQLQFEQAQTQQAAVQVPGIQTLGTQSQ [P0AFX7]    0.469
MSERLSITPLGPYIGAQISGADLTRPLSDNQFEQLYHAVLRHQVVFLRDQAITPQQQRALAQRFGELHIHPVYPHAEGVDEIIVLDTHNDNPPDNDNWHTDVTFIETPPAGAILAAKELPSTGGDTLWTSGIAAYEALSVPFRQLLSGLRAEHDFRKSFPEYKYRKTEEEHQRWREAVAKNPPLLHPVVRTHPVSGKQALFVNEGFTTRIVDVSEKESEALLSFLFAHITKPEFQVRWRWQPNDIAIWDNRVTQHYANADYLPQRRIMHRATILGDKPFYRAG    5.19
MAEAQNDPLLPGYSFNAHLVAGLTPIEANGYLDFFIDRPLGMKGYILNLTIRGQGVVKNQGREFVCRPGDILLFPPGEIHHYGRHPEAREWYHQWVYFRPRAYWHEWLNWPSIFANTGFFRPDEAHQPHFSDLFGQIINAGQGEGRYSELLAINLLEQLLLRRMEAINESLHPPMDNRVREACQYISDHLADSNFDIASVAQHVCLSPSRLSHLFRQQLGISVLSWREDQRISQAKLLLSTTRMPIATVGRNVGFDDQLYFSRVFKKCTGASPSEFRAGCEEKVNDVAVKLS [P0A9E0]    1.81

----------
assay: total protein half-life in vivo (active degradation + dilution); higher = more stable protein; details: wild type E. coli NCM3722; growth: C-lim chemostat; doubling time 3 h
ASSAY_READOUT: total protein half-life in vivo

MMSQPAKVLLLYAHPESQDSVANRVLLKPATQLSNVTVHDLYAHYPDFFIDIPREQALLREHEVIVFQHPLYTYSCPALLKEWLDRVLSRGFASGPGGNQLAGKYWRSVITTGEPESAYRYDALNRYPMSDVLRPFELAAGMCRMHWLSPIIIYWARRQSAQELASHARAYGDWLANPLSPGGR [P0A756]    2.94 h
MIDYTAAGFTLLQGAHLYAPEDRGICDVLVANGKIIAVASNIPSDIVPNCTVVDLSGQILCPGFIDQHVHLIGGGGEAGPTTRTPEVALSRLTEAGVTSVVGLLGTDSISRHPESLLAKTRALNEEGISAWMLTGAYHVPSRTITGSVEKDVAIIDRVIGVKCAISDHRSAAPDVYHLANMAAESRVGGLLGGKPGVTVFHMGDSKKALQPIYDLLENCDVPISKLLPTHVNRNVPLFEQALEFARKGGTIDITSSIDEPVAPAEGIARAVQAGIPLARVTLSSDGNGSQPFFDDEGNLTHIGVAGFETLLETVQVLVKDYDFSISDALRPLTSSVAGFLNLTGKGEILPGNDADLLVMTPELRIEQVYARGKLMVKDGKACVKGTFETA    2.93 h
MSEPLDLNQLAQKIKQWGLELGFQQVGITDTDLSESEPKLQAWLDKQYHGEMDWMARHGMLRARPHELLPGTLRVISVRMNYLPANAAFASTLKNPKLGYVSRYALGRDYHKLLRNRLKKLGEMIQQHCVSLNFRPFVDSAPILERPLAEKAGLGWTGKHSLILNREAGSFFFLGELLVDIPLPVDQPVEEGCGKCVACMTICPTGAIVEPYTVDARRCISYLTIELEGAIPEELRPLMGNRIYGCDDCQLICPWNRYSQLTTEEDFSPRKPLHAPELIELFAWSEEKFLKVTEGSAIRRIGHLRWLRNIAVALGNAPWDETILTALESRKGEHPLLDEHIAWAIAQQIERRNACIVEVQLPKKQRLVRVIEKGLPRDA    > 4 h
MRYHGDMLLTTPVISTLKQNYPDAKIDMLLYQDTIPILSENPEINALYGISNKGAGTFDKIKNVLSLIKTLRANNYDLVINLTDQWMVALLVRCLPARMKISQLYGHRQHGIWKKSFTHLAPIHGTHIVERNLSVLEPLGITDFYTDTTMSYAEDCWKKMRRELDALGVKDHYVVIQPTARQIFKCWDNDKFSKVIDALQQRGYQVVLTCGPSADDLACVDEIARGCETKPITGLAGKTRFPELGALIDHAVLFIGVDSAPGHIAAAVKTPVISLFGATDHVFWRPWTENIIQFWAGNYQKMPTRHELDRNKKYLSVIPAEDVIAATEKLLPEDAPSADRNAQL    3.14 h
MVTINNARKILQRVDTLPLYLHAYAFHLNMRLERVLPADLLDIASENNLRGVKIHVLDGERFSLGNMDDKELSAFGDKARRLNLDIHIETSASDKASIDEAVAIALKTGASSVRFYPRYEGNLRDVLSIIANDIAYVRETYQDSGLTFTIEQHEDLKSHELVSLVKESEMESLSLLFDFANMINANEHPIDALKTMAPHITQVHIKDALIVKEPGGLGHKACISGQGDMPFKALLTHLICLGDDEPQVTAYGLEEEVDYYAPAFRFEDEDDNPWIPYRQMSETPLPENHLLDARLRKEKEDAINQINHVRNVLQQIKQEANHLLNH    1.99 h
MKKLITANDIREAHARGEQAMSVVLRASIITPEAREVADLLGFTITECDESIPVTASVPASVPADKTESQRIRETIIAQLPEGQFTESLVAQLMEKVMKEKQSLEQGAMQPSFKSVTGKGGIKVIDGSSVKFGRFDGAEPHCVGLTDLVTGDDGSSMAAGFMQWENAFFPWTLNYDEIDMVLEGELHVRHEGQTMIAKAGDVMFIPKGSSIEFGTTSSVKFLYVAWPANWQSL    2.12 h
MNRIEHYHDWLRDAHAMEKQAESMLESMASRIDNYPELRARIEQHLSETKNQIVQLETILDRNDISRSVIKDSMSKMAALGQSIGGIFPSDEIVKGSISGYVFEQFEIACYTSLLAAAKNAGDTASIPTIEAILNEEKQMADWLIQNIPQTTEKFLIRSETDGVEAKK    3.17 h
